List of pIC50 values.
# experimental.target: human recombinant GST cleaved CSNK1D (Homo sapiens)
# Construct: GST (cleaved yes)
# procedure.text: Purified Enzyme Assay (ADP-Glo CSNK1D Kinase Assay)
# recorded.conditions: 2 nM CSNK1D; peptide substrate 150 μM; ATP 20 μM; 45 minutes at room temperature
pIC50: −log10 of the molar value.
parameter.measured: pIC50

compound	quantitative.result
Cc1cc(-c2c(-c3ccc(F)cn3)nn3c2O[C@H](C)CC3)c2cn[nH]c2n1 (single isomer, unassigned)	7.77
Cc1nc2[nH]ncc2c(-c2c(-c3ccc(F)cn3)nn3c2CC2(C3)CC2(F)F)c1F (single isomer, unassigned) [Example 264]	8.40
CC1(C)Cn2nc(-c3cscn3)c(-c3ccnc4[nH]ncc34)c2CO1	7.77
Cc1cc(-c2c(-c3cscn3)nn3c2CCCC3)c2cn[nH]c2n1	7.22
Cc1cc(-c2c(-c3ccc(F)cn3)nn3c2OCC2(CC2)C3)c2c(Cl)n[nH]c2n1	8.30
Cc1cc(-c2c(-c3ccc(F)cn3)nn3c2OCCC3)c2cn[nH]c2n1	8.10
COC[C@@]1(F)CCc2c(-c3cc(C)nc4[nH]ncc34)c(-c3ccc(F)cn3)nn2C1 (single isomer, unassigned)	7.08

====

# experimental.target: human recombinant GST cleaved CSNK1D (Homo sapiens, UniProt P48730)
# Construct: GST (cleaved yes)
# Sequence (P48730 whole entry): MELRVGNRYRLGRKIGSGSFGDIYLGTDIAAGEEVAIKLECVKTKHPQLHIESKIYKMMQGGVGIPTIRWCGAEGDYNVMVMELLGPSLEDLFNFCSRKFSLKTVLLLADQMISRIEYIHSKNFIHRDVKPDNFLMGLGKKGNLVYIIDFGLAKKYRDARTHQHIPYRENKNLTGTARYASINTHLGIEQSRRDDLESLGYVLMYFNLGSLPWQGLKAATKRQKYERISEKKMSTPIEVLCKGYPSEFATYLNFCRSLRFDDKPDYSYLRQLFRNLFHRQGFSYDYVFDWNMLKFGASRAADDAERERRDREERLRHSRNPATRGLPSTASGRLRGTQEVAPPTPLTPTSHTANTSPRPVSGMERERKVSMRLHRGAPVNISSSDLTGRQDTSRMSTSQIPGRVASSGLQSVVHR
# procedure.text: Purified Enzyme Assay (ADP-Glo CSNK1D Kinase Assay)
# recorded.conditions: 2 nM CSNK1D; peptide substrate 150 μM; ATP 20 μM; 45 minutes at room temperature
parameter.measured: IC50 (µM)

compound	experimental.target	parameter.measured	readout.units	quantitative.result
[2H]C([2H])([2H])OC([2H])([2H])[C@@]1(F)CCc2c(-c3cc(C)nc4[nH]ncc34)c(-c3ccc(F)cn3)nn2C1 (single isomer, unassigned) [Example 313]	human recombinant GST cleaved CSNK1D (Homo sapiens, UniProt P48730)	IC50	µM	0.102
CCn1ncc2cc(-c3c(-c4ccc(F)cc4)nn4c3COCC4C)cnc21 (centres unmarked) [Example 370]	human recombinant GST cleaved CSNK1D (Homo sapiens, UniProt P48730)	IC50	µM	0.524
CC1(C)COc2c(-c3ccnc4cn[nH]c34)c(-c3ccc(F)cc3)nn2C1 [Example 453]	human recombinant GST cleaved CSNK1D (Homo sapiens, UniProt P48730)	IC50	µM	0.002
O=C(Nc1cc(-c2c(-c3ccc(F)cn3)nn3c2OCC2(CC2)C3)ccn1)C1CC1 [Example 456]	human recombinant GST cleaved CSNK1D (Homo sapiens, UniProt P48730)	IC50	µM	0.001
[2H]C([2H])([2H])[C@@]1(C(F)(F)F)Cn2nc(-c3ccc(F)cn3)c(-c3c(F)c(C)nc4[nH]nc(C)c34)c2CO1 (single isomer, unassigned) [Example 431]	human recombinant GST cleaved CSNK1D (Homo sapiens, UniProt P48730)	IC50	µM	1.58
Fc1ccc(-c2nn3c(c2-c2ccn4nccc4c2)CC[C@H]2[C@@H]3C2(F)F)cc1 (stereo in doubt) [Example 353]	human recombinant GST cleaved CSNK1D (Homo sapiens, UniProt P48730)	IC50	µM	1.12
Fc1ccc(-c2nn3c(c2-c2ccnc4[nH]nc(Cl)c24)CC2(C3)CC2(F)F)nc1 (single isomer, unassigned) [Example 257]	human recombinant GST cleaved CSNK1D (Homo sapiens, UniProt P48730)	IC50	µM	0.197
CC1(CF)CCc2c(-c3ccn4nccc4c3)c(-c3ccc(F)cn3)nn2C1 (single isomer, unassigned) [Example 290]	human recombinant GST cleaved CSNK1D (Homo sapiens, UniProt P48730)	IC50	µM	0.539
CC1(C)Cn2nc(-c3ccc(F)cn3)c(-c3ccnc4[nH]ccc34)c2CO1 [Example 147]	human recombinant GST cleaved CSNK1D (Homo sapiens, UniProt P48730)	IC50	µM	0.001
CC1(C)Cn2nc(-c3ccc(F)cn3)c(-c3ccncc3)c2CO1 [Example 128]	human recombinant GST cleaved CSNK1D (Homo sapiens, UniProt P48730)	IC50	µM	0.013
Cc1cc(-c2c(-c3ccc(F)cc3)nn3c2[C@H]2CC[C@@H]3C2)c2cn[nH]c2n1 (single isomer, unassigned) [Example 365]	human recombinant GST cleaved CSNK1D (Homo sapiens, UniProt P48730)	IC50	µM	0.001
CCC(=O)Nc1cc(-c2c(-c3ccc(F)cn3)nn3c2OCC(C)C3)ccn1 (centres unmarked) [Example 442]	human recombinant GST cleaved CSNK1D (Homo sapiens, UniProt P48730)	IC50	µM	0.003
C[C@]1(C(F)(F)F)Cn2nc(-c3ccc(F)cn3)c(-c3ccnc4[nH]ncc34)c2CO1 (single isomer, unassigned) [Example 178]	human recombinant GST cleaved CSNK1D (Homo sapiens, UniProt P48730)	IC50	µM	0.077
C[C@@H]1Cn2nc(-c3ccc(F)cc3)c(-c3ccnc4[nH]ncc34)c2CO1 (single isomer, unassigned) [Example 82]	human recombinant GST cleaved CSNK1D (Homo sapiens, UniProt P48730)	IC50	µM	0.002
